# protocol_text: Cytotoxicity against BHK cells after 48 to 96 hrs by MTT assay
# Type: cell-based, Mesocricetus auratus
# protocol_conditions: hamster
Give CC50 for every item shown.

Query "Nc1ccc(-c2nc3ccccc3[nH]2)cc1" yields CC50 of > 100 µM

The reported CC50 of the molecule "Cn1c(-c2ccc(NC(=O)CN3CCOCC3)cc2)nc2cc(C(F)(F)F)ccc21" was > 100 µM

// sample "Cn1c(-c2ccc(NC(=O)CN3CCCCC3)cc2)nc2cc(C(F)(F)F)ccc21" , its CC50 was > 100 µM

CC50 recorded for this molecule, "CC(=O)Nc1ccc(-c2nc3cc([N+](=O)[O-])ccc3[nH]2)cc1" , is > 100 µM

Consider "COc1ccc(-c2nc3cc([N+](=O)[O-])ccc3[nH]2)c(OC)c1" . Its measured CC50 is > 100 µM

Short answer for "O=C(CN1CCSCC1)Nc1ccc(-c2nc3cc(C(F)(F)F)ccc3[nH]2)cc1" : CC50 was > 100 µM

"Nc1ccc(-c2nc3cc([N+](=O)[O-])ccc3[nH]2)cc1" has a reported CC50 of > 100 µM

Item: "O=[N+]([O-])c1ccc(-c2nc3ccccc3[nH]2)c([N+](=O)[O-])c1" | CC50: > 100 µM

The molecule listed as "O=C(CN1CCN(c2ccccc2)CC1)Nc1ccc(-c2nc3cc(C(F)(F)F)ccc3[nH]2)cc1" has a reported CC50 of > 100 µM

Just so you know, measured CC50 for "CC(=O)Nc1ccc(-c2nc3cc(C(F)(F)F)ccc3n2C23CC4CC(CC(C4)C2)C3)cc1" came out at > 100 µM

# CC50 (molecule: "Cn1c(-c2ccc(NC(=O)CN3CCSCC3)cc2)nc2cc(C(F)(F)F)ccc21" ) is > 100 µM

molecule "O=[N+]([O-])c1ccc(-c2nc3cc(C(F)(F)F)ccc3n2C23CC4CC(CC(C4)C2)C3)cc1" , CC50 observed: > 100 µM

Lab note: "COc1ccc(-c2nc3cc(C(F)(F)F)ccc3[nH]2)cc1" gave CC50 of > 100 µM

In plain terms, "CCC(=O)Nc1ccc(-c2nc3ccccc3[nH]2)cc1" has a documented CC50 of ≥ 100 µM

Recorded CC50 (molecule "CC(=O)Nc1ccc(-c2nc3ccccc3[nH]2)cc1" ): > 100 µM

"CCC(=O)Nc1ccc(-c2nc3cc(C(F)(F)F)ccc3n2C2CCCCC2)cc1" yielded CC50 of 15 µM

The molecule listed as "C#C[C@@]1(O)[C@H](O)[C@@H](CO)O[C@H]1n1ccc(N)nc1=O" shows CC50 equal to > 100 µM

Please fill in: CC50 reported for "CCC(=O)Nc1ccc(-c2nc3cc(C(F)(F)F)ccc3n2C)cc1" = > 100 µM

# CC50 (molecule: "COc1ccc(-c2nc3cc(C(C)=O)ccc3[nH]2)c(OC)c1" ) is > 100 µM

The reported value for "COc1ccc(-c2nc3cc(Cl)c(Cl)cc3[nH]2)c([N+](=O)[O-])c1" in terms of CC50 is 80 µM

Lab book: CC50 of "C[C@@]1(O)[C@H](O)[C@@H](CO)O[C@H]1n1cnc2c(=O)[nH]c(N)nc21" noted as 90 µM

Briefly, CC50 measured for "O=C(CN1CCOCC1)Nc1ccc(-c2nc3ccccc3[nH]2)cc1" : > 100 µM

Given item "COc1ccc(-c2nc3cc(Cl)c(Cl)cc3[nH]2)cc1" , the value recorded as its CC50 is 18 µM

The molecule "COc1ccc(-c2nc3cc(Cl)c(Cl)cc3[nH]2)c(N)c1" showed CC50 equal to > 100 µM

Documented CC50 of "O=C(CN1CCCCC1)Nc1ccc(-c2nc3ccccc3[nH]2)cc1" : 31 µM

response.value for "Fc1cccc(F)c1-c1nc2cc(Cl)c(Cl)cc2[nH]1" (field: CC50) = > 100 µM
